target: B1-AR (Homo sapiens, UniProt P08588); construct: expressed in transfected cells; host or cells: CHO-K1; test: cAMP Gs dynamic HTRF assay, cells expressing beta-adrenergic receptor (CHO-K1), B1-AR; format: cell-based; conditions: cAMP HTRF, read-out: pEC50 [B1-AR] (converted)
Sequence (P08588 whole entry, species assumed): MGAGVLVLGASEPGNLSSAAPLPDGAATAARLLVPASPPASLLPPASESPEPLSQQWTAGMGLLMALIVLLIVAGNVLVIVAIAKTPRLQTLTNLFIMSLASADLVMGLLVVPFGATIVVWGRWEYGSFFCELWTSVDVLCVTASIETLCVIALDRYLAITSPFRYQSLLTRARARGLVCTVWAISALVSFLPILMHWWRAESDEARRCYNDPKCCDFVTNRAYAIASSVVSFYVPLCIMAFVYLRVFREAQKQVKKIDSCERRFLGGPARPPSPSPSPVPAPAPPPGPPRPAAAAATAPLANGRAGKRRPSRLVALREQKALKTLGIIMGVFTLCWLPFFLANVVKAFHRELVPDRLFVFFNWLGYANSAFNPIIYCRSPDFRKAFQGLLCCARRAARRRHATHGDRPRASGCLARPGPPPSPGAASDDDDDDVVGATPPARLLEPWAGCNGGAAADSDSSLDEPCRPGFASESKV

{"columns": ["Cpd Smiles", "EC50"],
 "data": [
  ["CC(C)(C)NC[C@H](O)c1cc(OC(F)F)cc2[nH]ncc12", "100 to 1000 nM"],
  ["CC(C)NC[C@H](O)c1cccc2[nH]cc(F)c12", "< 10 nM"],
  ["CC(C)(C)NC[C@H](O)c1cnc(N)s1", "> 1000 nM"],
  ["COc1ccnc2ccc([C@@H](O)CNC(C)(C)C)cc12", "100 to 1000 nM"],
  ["O[C@@H](CNC1CC1)c1cncc2[nH]ncc12", "100 to 1000 nM"]
]}

====

biological target: B1-AR (Homo sapiens); construct: expressed in transfected cells; host or cells: CHO-K1; test: cAMP Gs dynamic HTRF assay, cells expressing beta-adrenergic receptor (CHO-K1), B1-AR; format: cell-based; details: cAMP HTRF, read-out: pEC50 [B1-AR] (converted)

{"columns": ["Cpd Smiles", "EC50"],
 "data": [
  ["CC(C)(C)NC[C@H](O)c1ccc(OC(F)F)c2[nH]ncc12", "100 to 1000 nM"],
  ["C[C@H](NC[C@H](O)c1ccc(Cl)c2[nH]ncc12)C(C)(C)C", "100 to 1000 nM"],
  ["Cc1n[nH]c2cccc([C@@H](O)CNC3CC3)c12", "> 1000 nM"],
  ["CC1(NC[C@H](O)c2cc(C#N)cc3[nH]ncc23)CCC1", "100 to 1000 nM"],
  ["CCC(C)(CC)NC[C@H](O)c1cc(F)cc2[nH]ncc12", "< 10 nM"]
]}

====

EC50 listing for selected molecules.
target: B2-AR (Homo sapiens); construct: expressed in transfected cells; host or cells: CHO-K1; assay: cAMP Gs dynamic HTRF assay, cells expressing beta-adrenergic receptor (CHO-K1), B2-AR; type: cell-based; details: CHO-K1 cells, cAMP HTRF; read-out: pEC50 [B2-AR] (converted)
Sequence (P07550 whole entry, species assumed): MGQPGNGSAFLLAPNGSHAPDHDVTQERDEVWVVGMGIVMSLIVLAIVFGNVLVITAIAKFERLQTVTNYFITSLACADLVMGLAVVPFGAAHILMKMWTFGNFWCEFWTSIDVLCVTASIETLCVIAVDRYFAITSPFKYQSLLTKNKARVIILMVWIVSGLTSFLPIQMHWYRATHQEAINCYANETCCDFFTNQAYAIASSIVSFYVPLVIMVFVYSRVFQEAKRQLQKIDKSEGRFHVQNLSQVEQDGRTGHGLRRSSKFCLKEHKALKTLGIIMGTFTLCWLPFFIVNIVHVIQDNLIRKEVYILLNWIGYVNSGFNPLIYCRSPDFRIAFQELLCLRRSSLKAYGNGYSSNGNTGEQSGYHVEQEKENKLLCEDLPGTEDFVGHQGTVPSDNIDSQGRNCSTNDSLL

{"columns": ["Molecule", "EC50"],
 "data": [
  ["Cc1cc([C@@H](O)CNC(C)(C)C)cc2cccnc12 [I-71]", "10 to 100 nM"],
  ["Cc1ccnc2ccc([C@@H](O)CNC(C)(C)C)cc12 [I-72]", "10 to 100 nM"],
  ["CC(C)CNC[C@H](O)c1ccc(Cl)c2[nH]ncc12 [I-117]", "10 to 100 nM"],
  ["Cc1nc(N)c(Cl)cc1[C@@H](O)CNC1COC1 [I-146]", "> 1000 nM"],
  ["CC(C)(C)C(C)(C)NC[C@H](O)c1cc(C#N)cc2[nH]ncc12 [I-4]", "100 to 1000 nM"],
  ["CC(C)(C)NC[C@H](O)c1cc(OC(F)F)cc2[nH]ncc12 [I-106]", "10 to 100 nM"],
  ["O[C@@H](CNC1CC1)c1cccc2[nH]nc(Cl)c12 [I-98]", "< 10 nM"],
  ["CC(C)CNC[C@H](O)c1cccc2[nH]nc(F)c12 [I-138]", "< 10 nM"],
  ["C[C@H](NC[C@H](O)c1cc(C#N)cc2[nH]ncc12)C(C)(C)C [I-5]", "100 to 1000 nM"]
]}
